Numbers sourced from patent US20240182495A1.

test: Mitochondrial toxicity (Glu/Gal) assay; type: cell-based; settings: galactose medium; further: unit not given here
reportedMetric: Glu/Gal: Gal

Query: Fill in Glu/Gal: Gal for record CCc1nc2ncc(C)cn2c1C(=O)NCc1ccc(-c2nc3n(n2)CCN(S(=O)(=O)C(F)(F)F)C3)c(F)c1
Result: > 200

Query: Fill in Glu/Gal: Gal for record CCc1nc2ncc(Cl)cn2c1C(=O)NCc1ccc(-c2nc3n(n2)CCN(S(=O)(=O)C(F)(F)F)C3)cc1
Result: > 100

Query: Supply reported Glu/Gal: Gal belonging to this compound: CCc1nc2ncc(C)cn2c1C(=O)NCc1ccc(-c2cc3n(n2)CCN(S(=O)(=O)C(F)(F)F)C3)c(F)c1
Result: > 25

Query: Please report the measured Glu/Gal: Gal for CCc1nc2ccc(C)cn2c1C(=O)NCc1ccc(-c2cn3c(n2)CN(S(=O)(=O)C(F)(F)F)CC3)cc1
Result: > 200
